assay: Pharmacokinetics of SNS-595 in cancer patients
Assay type: in vivo, human
experimental-parameters: human, intravenous, 24 mg/m2, plasma, dose 24 mg/m^2, read-out: MRTINF_obs
Method: SNS-595 was administered to enrolled patients for up to six cycles. A cycle is defined as a three-week period, with SNS-595 administered on the first day of each cycle (day 0), followed by at least 21 days of observation. SNS-595 was administered to cohorts of at least 3 patients and dose escalation occurred by sequential cohort.
experimental-endpoint: MRT inf (h)

>  <sample-smiles>
CN[C@H]1CN(c2ccc3c(=O)c(C(=O)O)cn(-c4nccs4)c3n2)C[C@@H]1OC

>  <recorded-result>
21.6

$$$$

----------
assay: Pharmacokinetics of SNS-595 in cancer patients
Assay type: in vivo, human
experimental-parameters: human, intravenous, 48 mg/m2, plasma, dose 48 mg/m^2

>  <sample-smiles>
CN[C@H]1CN(c2ccc3c(=O)c(C(=O)O)cn(-c4nccs4)c3n2)C[C@@H]1OC

>  <uom>
ng/mL

>  <Cmax>
2870

$$$$

----------
assay: Pharmacokinetics of SNS-595 in cancer patients
Type: in vivo, human
experimental-parameters: human, intravenous, 12 mg/m2, plasma, dose 12 mg/m^2

>  <sample-smiles>
CN[C@H]1CN(c2ccc3c(=O)c(C(=O)O)cn(-c4nccs4)c3n2)C[C@@H]1OC

>  <uom>
ng·h/mL

>  <AUC(0-t)>
5400

$$$$

----------
assay: Pharmacokinetics of SNS-595 in cancer patients
Assay type: in vivo, human
experimental-parameters: human, intravenous, 6 mg/m2, plasma, dose 6 mg/m^2, read-out: AUCINF_obs

>  <sample-smiles>
CN[C@H]1CN(c2ccc3c(=O)c(C(=O)O)cn(-c4nccs4)c3n2)C[C@@H]1OC

>  <AUC(0-inf) (ng·h/mL)>
2990

$$$$

----------
assay: Pharmacokinetics of SNS-595 in cancer patients
Assay type: in vivo, human
experimental-parameters: human, intravenous, 12 mg/m2, plasma, dose 12 mg/m^2, read-out: MRTINF_obs

>  <sample-smiles>
CN[C@H]1CN(c2ccc3c(=O)c(C(=O)O)cn(-c4nccs4)c3n2)C[C@@H]1OC

>  <uom>
h

>  <MRT inf>
23.7

$$$$

----------
assay: Pharmacokinetics of SNS-595 in cancer patients
Type: in vivo, human
experimental-parameters: human, intravenous, 48 mg/m2, plasma, dose 48 mg/m^2, read-out: MRTINF_obs
experimental-endpoint: MRT inf (h)

>  <sample-smiles>
CN[C@H]1CN(c2ccc3c(=O)c(C(=O)O)cn(-c4nccs4)c3n2)C[C@@H]1OC

>  <recorded-result>
28.9

$$$$

Origin of the recorded values: patent US9757363B2
